- test_name: Tmax in CD-1 mouse at 100 mg/kg, po measured upto 1440 mins by LC/MS/MS analysis
- Format: ADME, organism-based
- assay_conditions: in vivo
assay_endpoint: Tmax (min)

O=C(/C=C/c1ccc(O)c(O)c1)c1ccc(O)cc1O = 18
O=C(Oc1cc(O)ccc1C(=O)/C=C/c1ccc(O)c(O)c1)c1ccccc1 = 24

====

- test_name: Inhibition of LPS stimulated TNF alpha production in Balb/c mouse peritoneal macrophages measured by ELISA plate reader method
- Format: functional
- assay_conditions: Macrophage
pIC50: −log10 of the molar value.
assay_endpoint: pIC50

CC(=O)Oc1ccc(C(=O)/C=C/c2ccc(OC(C)=O)c(OC(C)=O)c2)c(OC(C)=O)c1 = 4.89

I: O=C(/C=C/c1ccc(O)c(O)c1)c1ccc(O)cc1O
II: Cc1ccc(C(=O)Oc2cc(O)ccc2C(=O)/C=C/c2ccc(O)c(O)c2)cc1
Identify the item whose pIC50 is the smaller number: I or II API: response body contains the label of the selected item.
I

====

- test_name: Metabolic stability in human liver microsomes assessed as percentage of compound remaining after 30 mins
- Type: ADME, Microsome
- assay_conditions: read-out: Stabilty
assay_endpoint: remaining at 0.5 h (%)

O=C1CC2(CCCC2)CC(=O)N1CCCCN1CCN(c2ncccn2)CC1 = 4.7

I: O=C(/C=C/c1ccc(O)c(O)c1)c1ccc(O)cc1O
II: O=C(/C=C/c1ccc(O)c(O)c1)c1ccc(Cl)cc1
III: O=C(Oc1cc(O)ccc1C(=O)/C=C/c1ccc(O)c(O)c1)c1ccccc1
Please list the entries, largest remaining at 0.5 h first. Please reply with the labels ordered as requested. Many thanks.
I, II, III
(I: 61.6%, II: 38%, III: 2%)

====

- test_name: Metabolic stability in mouse liver microsomes assessed as percentage of compound remaining after 30 mins
- Type: ADME, Microsome
- assay_conditions: read-out: Stabilty
assay_endpoint: remaining at 0.5 h (%)

Worked cases, answers included:
O=C(/C=C/c1ccc(O)c(O)c1)c1ccc(O)cc1O [BUTEIN] = 9.93
O=C1CC2(CCCC2)CC(=O)N1CCCCN1CCN(c2ncccn2)CC1 [BUSPIRONE] = 0.0183

I: O=C(Oc1cc(O)ccc1C(=O)/C=C/c1ccc(O)c(O)c1)c1ccccc1
II: O=C(/C=C/c1ccc(O)c(O)c1)c1ccc(Cl)cc1
Identify the item whose remaining at 0.5 h is the smaller number: I or II API: response body contains the label of the selected item.
I
(I: 4%, II: 7.26%)

====

- test_name: AUC (0 to infinity) in CD-1 mouse at 20 mg/kg, po measured upto 1440 mins by LC/MS/MS analysis
- Format: ADME, organism-based
- Set-up: route oral, dose 20 mg/kg, time <=1440
- assay_conditions: in vivo, 24 h
assay_endpoint: AUC (ng·h/mL)

P: O=C(Oc1cc(O)ccc1C(=O)/C=C/c1ccc(O)c(O)c1)c1ccccc1
Q: O=C(/C=C/c1ccc(O)c(O)c1)c1ccc(O)cc1O
Identify the item whose AUC is the smaller number: P or Q API: response body contains the label of the selected item.
Q
(Q: 21 ng·h/mL, P: 141 ng·h/mL)

====

- test_name: Cmax in CD-1 mouse at 100 mg/kg, po measured upto 1440 mins by LC/MS/MS analysis
- Assay type: ADME, organism-based
- Design: route oral, dose 100 mg/kg, time <=1440
- assay_conditions: in vivo
assay_endpoint: Cmax (ng/mL)

a: O=C(Oc1cc(O)ccc1C(=O)/C=C/c1ccc(O)c(O)c1)c1ccccc1
b: O=C(/C=C/c1ccc(O)c(O)c1)c1ccc(O)cc1O
Identify the item whose Cmax is the smaller number: a or b API: response body contains the label of the selected item.
b
(b: 601 ng/mL, a: 1600 ng/mL)

====

- test_name: Kinetic solubility of compound in water
- Type: physicochemical
- assay_conditions: read-out: Kinetic_solubility
assay_endpoint: solubility kinetic (µg/mL)

a: O=C(/C=C/c1ccc(O)c(O)c1)c1ccc(Cl)cc1
b: O=C(Oc1cc(O)ccc1C(=O)/C=C/c1ccc(O)c(O)c1)c1ccccc1
Identify the item whose solubility kinetic is the smaller number: a or b API: response body contains the label of the selected item.
a
(a: 28 µg/mL, b: 136 µg/mL)

====

- test_name: Metabolic stability in rat liver microsomes assessed as percentage of compound remaining after 30 mins
- Format: ADME, Microsome
- assay_conditions: read-out: Stabilty
assay_endpoint: remaining at 0.5 h (%)

P: O=C(/C=C/c1ccc(O)c(O)c1)c1ccc(Cl)cc1
Q: O=C(Oc1cc(O)ccc1C(=O)/C=C/c1ccc(O)c(O)c1)c1ccccc1
Identify the item whose remaining at 0.5 h is the smaller number: P or Q API: response body contains the label of the selected item.
Q

====

- test_name: AUC (0 to infinity) in CD-1 mouse at 100 mg/kg, po measured upto 1440 mins by LC/MS/MS analysis
- Format: ADME, organism-based
- Design: route oral, dose 100 mg/kg, time <=1440
- assay_conditions: CD-1, mouse, in vivo
assay_endpoint: AUC(0-inf) (ng·h/mL)
# value in ng·h/mL; strip the unit string

Which measured AUC(0-inf) value corresponds to O=C(/C=C/c1ccc(O)c(O)c1)c1ccc(O)cc1O ?
251

====

- test_name: Dissociation constant, pKa of compound
- Assay type: physicochemical
assay_endpoint: pKa

O=C(/C=C/c1ccc(O)c(O)c1)c1ccc(O)cc1O = 7.96

1: O=C(/C=C/c1ccc(O)c(O)c1)c1ccc(Cl)cc1
2: O=C(Oc1cc(O)ccc1C(=O)/C=C/c1ccc(O)c(O)c1)c1ccccc1
Could you point out whether the larger pKa belongs to 1 or to 2 ? API: response body contains the label of the selected item.
1

====

- test_name: Inhibition of LPS stimulated TNF alpha production in Balb/c mouse peritoneal macrophages measured by ELISA plate reader method
- Format: functional
- assay_conditions: Macrophage
assay_endpoint: IC50 (µM)

Worked cases, answers included:
O=C(/C=C/c1ccc(O)c(O)c1)c1ccc(Cl)cc1 = 17.3
Cc1ccc(C(=O)/C=C/c2ccc(O)c(O)c2)cc1 = 18.6
O=C(Oc1cc(O)ccc1C(=O)/C=C/c1ccc(O)c(O)c1)c1ccccc1 = 14.6

a: COc1ccc(C(=O)Oc2cc(O)ccc2C(=O)/C=C/c2ccc(O)c(O)c2)cc1
b: Cc1cc(O)ccc1C(=O)/C=C/c1ccc(O)c(O)c1
Identify the item whose IC50 is the smaller number: a or b API: response body contains the label of the selected item.
a
(a: 20.8 µM, b: 48.4 µM)
